Origin of the recorded values: paper PMC5380267

# assayOverview: MPA pharmacokinetics in renal transplant patients on MMF (plasma HPLC-UV, Bayesian estimation of AUC)
# Format: in vivo, human
# conditionsUsed: human, plasma, MPA Cmax, mean ± SD, CsA + MMF; MMF 1000 mg/day; CsA 120–180 mg/day
quantityKind: Cmax
Mention the unit after the number when you answer.

Request: Any idea what its Cmax is? The molecule is COc1c(C)c2c(c(O)c1C/C=C(\C)CCC(=O)O)C(=O)OC2 [MPA, mycophenolic acid]
Response: 12100 ng/mL

---

# assayOverview: MPA pharmacokinetics in renal transplant patients on MMF (plasma HPLC-UV, Bayesian estimation of AUC)
# Type: in vivo, human
# conditionsUsed: human, plasma, MPA AUC(0–12), mean ± SD (range), EVR + MMF group, all MMF doses (n = 17)
quantityKind: AUC(0-t)

Request: Any idea what AUC(0-t) was measured for COc1c(C)c2c(c(O)c1C/C=C(\C)CCC(=O)O)C(=O)OC2 ?
Response: 47000 ng·h/mL

---

# assayOverview: MPA pharmacokinetics in renal transplant patients on MMF (plasma HPLC-UV, Bayesian estimation of AUC)
# Format: in vivo, human
# conditionsUsed: human, plasma, MPA Cmax related to high-dose CsA, CsA >240 mg/day
quantityKind: Cmax

Request: Reported Cmax, compound COc1c(C)c2c(c(O)c1C/C=C(\C)CCC(=O)O)C(=O)OC2 : ____
Response: > 10000 ng/mL

---

# assayOverview: MPA pharmacokinetics in renal transplant patients on MMF (plasma HPLC-UV, Bayesian estimation of AUC)
# Format: in vivo, human
# conditionsUsed: human, plasma, MPA AUC(0–12), mean ± SD, CsA + MMF; MMF 2000 mg/day; CsA 120–180 mg/day
quantityKind: AUC(0-t) (ng·h/mL)
Your answer should be a plain number; it is taken to be in ng·h/mL.

Request: For the compound shown here, COc1c(C)c2c(c(O)c1C/C=C(\C)CCC(=O)O)C(=O)OC2 [MPA, mycophenolic acid] , give the reported AUC(0-t).
Response: 28800

---

# assayOverview: MPA pharmacokinetics in renal transplant patients on MMF (plasma HPLC-UV, Bayesian estimation of AUC)
# Format: in vivo, human
# conditionsUsed: human, plasma, MPA Cmax, mean ± SD (range), Medium-dose MMF group, 2000 mg/day; EVR group
quantityKind: Cmax (µg/mL)
Please respond with the number in µg/mL and leave the unit unwritten.

Request: Recorded Cmax for COc1c(C)c2c(c(O)c1C/C=C(\C)CCC(=O)O)C(=O)OC2 [MPA, mycophenolic acid] , please?
Response: 17.4
